biological target: Human DNA polymerase κ (Homo sapiens, UniProt Q9UBT6); construct: made in house; test: DNA polymerase activity assay, human pol κ; assay type: biochemical; conditions: 50 μM of each compound; Figure 2
Sequence (Q9UBT6 1-560 limits assumed): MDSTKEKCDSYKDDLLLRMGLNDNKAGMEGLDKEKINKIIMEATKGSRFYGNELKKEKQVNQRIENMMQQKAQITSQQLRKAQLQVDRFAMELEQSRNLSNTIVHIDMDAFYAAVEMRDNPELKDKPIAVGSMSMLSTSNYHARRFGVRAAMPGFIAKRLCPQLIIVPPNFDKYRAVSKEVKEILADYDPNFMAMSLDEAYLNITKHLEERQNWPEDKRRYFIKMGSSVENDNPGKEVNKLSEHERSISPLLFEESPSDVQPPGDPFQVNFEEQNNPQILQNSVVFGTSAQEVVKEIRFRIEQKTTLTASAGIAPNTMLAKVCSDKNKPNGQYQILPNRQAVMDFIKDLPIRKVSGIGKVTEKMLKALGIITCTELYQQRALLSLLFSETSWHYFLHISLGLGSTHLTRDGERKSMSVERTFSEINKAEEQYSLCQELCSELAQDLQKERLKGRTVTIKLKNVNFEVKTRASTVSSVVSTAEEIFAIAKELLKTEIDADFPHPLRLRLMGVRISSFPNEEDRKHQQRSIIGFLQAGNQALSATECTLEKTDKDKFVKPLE
MEASURED ENDPOINT: Inhibitory effect on human pol κ activity

1. CC(C)=CCC/C(C)=C/CC1=C(C)C(=O)c2ccccc2C1=O    inhibited the activity
2. CC(C)=CCC1=C(C)C(=O)c2ccccc2C1=O    inhibited the activity
3. CC(C)=CCC/C(C)=C/CC/C(C)=C/CC1=C(C)C(=O)c2ccccc2C1=O    inhibited the activity

###

MEASURED ENDPOINT: pIC50
Please express pIC50 as -log10 of the molar concentration.

// molecule CC(C)=CCC/C(C)=C/CC1=C(C)C(=O)c2ccccc2C1=O , assay Fruit fly DNA polymerase ɛ (Drosophila melanogaster), pIC50 value: 4.44

All figures here come from paper PMC3083694.
